These data points were gathered from ChEMBL document CHEMBL3414561.

measurement.protocol: Drug uptake in Non-naive cynomolgus monkey assessed as lung NMP level at 5 mg/kg, iv after 1 hr
Type: ADME, organism-based, Macaca fascicularis
Set-up: dose 5 mg/kg, route intravenous
assay.context: in vivo, read-out: Drug uptake
readout: concentration (µM)

(A) Nc1ccn([C@@H]2O[C@@](CO)(CCl)[C@@H](O)[C@H]2F)c(=O)n1
(B) Nc1ccn([C@@H]2O[C@@](CO)(CF)[C@@H](O)[C@H]2F)c(=O)n1
(C) CC[C@]1(CO)O[C@@H](n2ccc(N)nc2=O)[C@H](F)[C@@H]1O
Task: Please list the entries, largest concentration first. // respond by listing labels in the order requested
Output: A, B, C
